- tested system: human CYP2D6 (Homo sapiens)
- Sequence (P10635 whole entry): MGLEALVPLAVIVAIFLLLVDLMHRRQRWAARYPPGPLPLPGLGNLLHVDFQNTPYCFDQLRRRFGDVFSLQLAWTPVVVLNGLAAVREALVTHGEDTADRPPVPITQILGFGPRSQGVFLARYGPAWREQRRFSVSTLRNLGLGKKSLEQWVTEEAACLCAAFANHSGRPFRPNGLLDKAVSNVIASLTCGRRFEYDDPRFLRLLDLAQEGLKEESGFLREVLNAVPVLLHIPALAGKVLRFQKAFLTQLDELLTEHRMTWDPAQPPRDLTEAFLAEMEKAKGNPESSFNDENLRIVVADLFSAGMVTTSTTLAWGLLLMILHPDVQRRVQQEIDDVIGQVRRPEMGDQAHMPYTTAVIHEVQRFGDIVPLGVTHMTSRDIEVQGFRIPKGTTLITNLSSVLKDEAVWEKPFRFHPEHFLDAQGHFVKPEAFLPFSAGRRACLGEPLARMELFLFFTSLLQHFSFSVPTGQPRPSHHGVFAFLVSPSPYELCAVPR
- test name: biochemical
- conditions used: CYP2D6 AC50 (half-maximal activity concentration)
I'd appreciate it if you marked entries criterion met when AC50 is lower than 6 µM and criterion not met when it is not.

Example cases with answers are listed next.
CC[N+](C)(CC)CCOC(=O)C1c2ccccc2Oc2ccccc21 [Methantheline bromide] ... criterion met
[O-][n+]1ccccc1SSc1cccc[n+]1[O-] ... criterion met
CNC(=O)Oc1cc(C)cc(C(C)C)c1 ... criterion not met
Cc1ccc2c(c1N)C(=O)c1ccccc1C2=O ... criterion met
O=C1c2ccccc2C(=O)C1C(=O)C(c1ccccc1)c1ccc(Cl)cc1 (stereo not drawn) ... criterion not met
ClC(Cl)(Cl)c1ccc(C(Cl)(Cl)Cl)cc1 ... criterion not met
O=C(CCN1CCC(c2ccccc2)C1)c1ccc2c(c1)OCCO2 (stereo not drawn) ... criterion met
Cc1cccc2sc(N)nc12 ... criterion not met

Next up:
Query block: Item CN1CCC(=C2c3ccccc3CCc3sccc32)CC1 : AC50 beneath 6 µM, strictly?
Result block: criterion met

---

- tested system: human CYP1A2 (Homo sapiens, UniProt P05177)
- Sequence (P05177 whole entry): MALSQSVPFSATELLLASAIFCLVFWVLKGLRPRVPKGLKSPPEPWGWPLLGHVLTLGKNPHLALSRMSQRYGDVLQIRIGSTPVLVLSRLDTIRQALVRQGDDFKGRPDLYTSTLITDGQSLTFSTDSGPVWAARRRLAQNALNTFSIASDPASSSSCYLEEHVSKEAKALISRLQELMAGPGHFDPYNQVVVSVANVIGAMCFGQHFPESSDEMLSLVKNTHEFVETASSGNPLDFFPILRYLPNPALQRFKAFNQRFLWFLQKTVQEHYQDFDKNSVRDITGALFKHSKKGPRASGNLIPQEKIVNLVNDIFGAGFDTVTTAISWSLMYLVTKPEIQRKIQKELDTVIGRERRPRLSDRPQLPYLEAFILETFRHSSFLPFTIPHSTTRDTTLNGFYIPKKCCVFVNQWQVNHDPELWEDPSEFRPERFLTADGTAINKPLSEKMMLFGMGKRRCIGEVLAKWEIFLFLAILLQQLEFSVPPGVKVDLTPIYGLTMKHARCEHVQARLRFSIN
Structures can show the parent of a compound that is named as a salt.
outcome measure: CYP1A2 AC50 (half-maximal activity concentration)

COC(OC)(C(=O)c1ccccc1)c1ccccc1 [2,2-Dimethoxy-1,2-diphenylethanone] ... Inactive
C1CC(COCC2CO2)CCC1COCC1CO1 (stereo not drawn) ... Inconclusive inhibitor
O[Si](c1ccccc1)(c1ccccc1)c1ccccc1 [Triphenylsilanol] ... Inconclusive inhibitor
NNS(=O)(=O)c1ccc(Oc2ccc(S(=O)(=O)NN)cc2)cc1 [4,4'-Oxybis(benzenesulfonhydrazide)] ... Inactive
CCCCCCCCCCOS(=O)(=O)O [Sodium decyl sulfate] ... Inactive

Query block: Find the measured CYP1A2 AC50 (half-maximal activity concentration): item O=C1OC2(c3ccccc31)c1ccc(O)c(Br)c1Oc1c2ccc(O)c1Br [4',5'-Dibromofluorescein] , target or system human CYP1A2 (Homo sapiens, UniProt P05177).
Result block: Inconclusive inhibitor

Query block: # returns recorded CYP1A2 AC50 (half-maximal activity concentration) (system: human CYP1A2 (Homo sapiens, UniProt P05177)) for O=C(O)c1cc(C(=O)O)cc([N+](=O)[O-])c1 [5-Nitroisophthalic acid]
Result block: Inconclusive inhibitor

Query block: What value of CYP1A2 AC50 (half-maximal activity concentration) on human CYP1A2 (Homo sapiens, UniProt P05177) does O=C(CCC1CCN(Cc2ccccc2)CC1)c1ccc2c(c1)NCCCC2.O=C(O)/C=C/C(=O)O [Zanapezil fumerate] have?
Result block: Inconclusive inhibitor

Query block: For the record CC1(C)[C@H](C(=O)O[C@H](C#N)c2cccc(Oc3ccccc3)c2)[C@@H]1C=C(Br)Br [Deltamethrin] , what value of CYP1A2 AC50 (half-maximal activity concentration) is listed for human CYP1A2 (Homo sapiens, UniProt P05177)?
Result block: Inconclusive inhibitor

Query block: Record lookup: for human CYP1A2 (Homo sapiens, UniProt P05177), what CYP1A2 AC50 (half-maximal activity concentration) belongs to O=S(=O)(c1ccc(O)cc1)c1ccc(O)cc1 [4,4'-Sulfonyldiphenol] ?
Result block: Inconclusive inhibitor

Query block: Param readout= CYP1A2 AC50 (half-maximal activity concentration); system= human CYP1A2 (Homo sapiens, UniProt P05177); entry= CCCCCCCCCCCSCC(=O)O [3-Thiatetradecanoic acid] ; returns value.
Result block: Inconclusive inhibitor

---

- tested system: human CYP1A2 (Homo sapiens, UniProt P05177)
- test name: biochemical
- conditions used: CYP1A2 IC50 (half-maximal inhibitory concentration)
Counter-ions that a name gives are not always drawn.
outcome measure: IC50 (nM)
Write down the numeric answer in nM and omit the unit.

Check out these entries, answers already filled in.
OCc1c2ccccc2cc2ccccc12 ... 700
O=[N+]([O-])c1c2ccccc2cc2ccccc12 ... 270
CC(COc1ccccc1)N(CCCl)Cc1ccccc1 (centres unmarked) [Phenoxybenzamine hydrochloride] ... 65800
Oc1ccc2ccc3cccc4ccc1c2c34 [1-Hydroxypyrene] ... 830

Switching to the query record.
Query block: What does the data say about its IC50? Entry: COc1ccc2c(c1OC)CN1CCc3cc4c(cc3[C@@H]1C2)OCO4
Result block: 9100

---

Each entry below carries its measured pIC50, system: UniProt P05177.
Reminder that pIC50 is minus the log10 of a molar concentration.

These recorded examples may help you get a feel for the data.
c1cc(CCCc2ccncc2)ccn1 ... 5.81
Cl.Clc1ccc(Cn2c(CN3CCCC3)nc3ccccc32)cc1 [Clemizole hydrochloride] ... 4.75
O=S(=O)(Oc1ccc(Cl)cc1)c1ccccc1 ... 5.25
[I][Hg][I] [Mercury(II) iodide] ... 5.43

Query block: Value lookup for pIC50; key = COP(=S)(NC(C)C)Oc1ccc(C)cc1[N+](=O)[O-] (centres unmarked)
Result block: 4.91

---

- tested system: UniProt P10635
- test name: biochemical
- conditions used: CYP2D6 IC50
Counter-ions that a name gives are not always drawn.
Examples of compounds with documented IC50 follow.
The reply should be a number in µM, with the unit left off.

Worked set:
Cc1cccc(Cc2c[nH]cn2)c1C [Detomidine hydrochloride] ... 2.37
Cc1ccc2ccc3cccc4ccc1c2c34 [1-Methylpyrene] ... 55.4
CCCC(C(=O)OCCN(CC)CC)(c1ccccc1)c1ccccc1 [Proadifen hydrochloride] ... 0.2

Query block: Recall the recorded IC50 for CN(Cc1ccc(C(C)(C)C)cc1)Cc1cccc2ccccc12 [Butenafine] with UniProt P10635 and state it.
Result block: 0.39

Query block: Form field: IC50 recorded for CC(C)COCC(CN(Cc1ccccc1)c1ccccc1)N1CCCC1 (centres unmarked) [Bepridil] with UniProt P10635 (enter value)
Result block: 0.06

Query block: Checklist item: IC50 tested on UniProt P10635, entry Cc1ccc(N(CC2=NCCN2)c2cccc(O)c2)cc1 [Phentolamine mesilate] , value?
Result block: 0.65

Query block: Recall the recorded IC50 for Oc1cc(Cl)ccc1Oc1ccc(Cl)cc1Cl [Triclosan] with UniProt P10635 and state it.
Result block: 32.8

Query block: Which measured IC50 belongs to CCN(CC)CCCN(c1ccccc1)C1Cc2ccccc2C1 [Aprindine hydrochloride] , tested on UniProt P10635?
Result block: 0.44

---

- tested system: human CYP2C9 (Homo sapiens, UniProt P11712)
- Sequence (P11712 whole entry): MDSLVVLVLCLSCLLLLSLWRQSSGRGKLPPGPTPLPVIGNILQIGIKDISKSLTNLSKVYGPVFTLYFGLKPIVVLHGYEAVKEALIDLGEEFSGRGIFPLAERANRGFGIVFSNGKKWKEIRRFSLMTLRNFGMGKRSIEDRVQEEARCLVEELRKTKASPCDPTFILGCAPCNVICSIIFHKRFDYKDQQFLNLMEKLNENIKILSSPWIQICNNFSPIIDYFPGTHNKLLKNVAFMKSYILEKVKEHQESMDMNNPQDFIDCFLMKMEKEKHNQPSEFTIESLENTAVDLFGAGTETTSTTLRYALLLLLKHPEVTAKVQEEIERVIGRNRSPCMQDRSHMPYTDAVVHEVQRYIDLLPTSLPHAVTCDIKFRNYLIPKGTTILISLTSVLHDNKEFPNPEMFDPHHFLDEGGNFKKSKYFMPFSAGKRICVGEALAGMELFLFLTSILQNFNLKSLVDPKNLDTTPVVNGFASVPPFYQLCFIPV
Collected AC50 values appear next to each entry.
# unit: µM | format: bare number

// solved cases for AC50 follow
OCC(CBr)(CBr)CBr ... 40.5
CC(=O)c1cc(C(C)(C)C)cc2c1CCC2(C)C ... 27.6
CO/C=C(/C(=O)OC)c1ccccc1COc1cccc(C(F)(F)F)n1 ... 38.4

Query block: Reported AC50 for CCCOC(=O)c1c(Cl)c(Cl)c(Cl)c(Cl)c1C(=O)OCCC : what is it?
Result block: 20.1

Query block: Item Cc1ccc([N+](=O)[O-])c(N)c1 has what recorded AC50?
Result block: 49.9

Query block: I'd like to know its AC50. The compound in question is CC(C)(C)C(=O)C=Cc1ccc(Cl)cc1
Result block: 54

Query block: Given the compound CN1C(=O)N(c2ccccc2Br)Cc2cnc(Nc3ccc4c(c3)OCC(CO)O4)nc21 (stereo not shown) , what is its reported AC50?
Result block: 12.2

Query block: What does the record list as AC50 for CCC(=O)Oc1ccc2c(c1)CC[C@@H]1[C@@H]2CC[C@@]2(C)[C@H]1C[C@@H](OC(=O)CC)[C@@H]2OC(=O)CC [Estriol tripropionate] ?
Result block: 19.8

Query block: # lookup: AC50 of O=C(O)C(F)(F)C(F)(F)C(F)(F)C(F)(F)C(F)(F)F
Result block: 17.5

Query block: Requested read-out: AC50. Entry: O=C(c1ccc(O)c(O)c1)c1ccc(O)cc1O [2,3',4,4'-Tetrahydroxybenzophenone]
Result block: 4.22

---

- tested system: UniProtKB P33261
- test name: biochemical
- conditions used: CYP2C19 IC50 (half-maximal inhibitory concentration)
Counter-ions that a name gives are not always drawn.
outcome measure: log10 IC50 (log10 of the value in nM)
Note: values are log10 of IC50 expressed in nM.

Solved entries (count: 3):
CCOP(=S)(OCC)Oc1ccc2c(C)c(Cl)c(=O)oc2c1 [Coumaphos] ... 2.51
Fc1ccc(Oc2ccnc3cc(Cl)cc(Cl)c23)cc1 [Quinoxyfen] ... 4.12
CN1CCCC(CC2c3ccccc3Sc3ccccc32)C1 (stereo not drawn) [Metixene hydrochloride] ... 3.89

From here, focus on the item given below.
Query block: Any idea what log10 IC50 was measured for CCCC(Cn1cncn1)c1ccc(Cl)cc1Cl (stereo not drawn) [Penconazole] ?
Result block: 2.15

---

- tested system: human CYP2C19 (Homo sapiens, UniProt P33261)
- Sequence (P33261 whole entry): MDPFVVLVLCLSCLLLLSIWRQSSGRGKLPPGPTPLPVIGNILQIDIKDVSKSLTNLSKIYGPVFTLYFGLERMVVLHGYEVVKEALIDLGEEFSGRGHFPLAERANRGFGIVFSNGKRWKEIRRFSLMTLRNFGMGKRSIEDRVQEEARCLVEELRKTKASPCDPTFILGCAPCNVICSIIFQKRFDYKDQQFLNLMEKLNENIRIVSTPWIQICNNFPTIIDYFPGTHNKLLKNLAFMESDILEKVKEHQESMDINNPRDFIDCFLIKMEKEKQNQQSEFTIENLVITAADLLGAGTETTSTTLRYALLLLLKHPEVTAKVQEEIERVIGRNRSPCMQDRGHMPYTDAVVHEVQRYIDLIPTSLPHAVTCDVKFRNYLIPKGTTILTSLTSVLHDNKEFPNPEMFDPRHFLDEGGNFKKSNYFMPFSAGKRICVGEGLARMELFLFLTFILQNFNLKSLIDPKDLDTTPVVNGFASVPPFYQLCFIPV
- test name: biochemical
Counter-ions that a name gives are not always drawn.
outcome measure: IC50 (nM)
The response must be a number in nM with no trailing unit.

# count of solved cases: 8
CCN(CC)Cc1nccn1-c1ccc([N+](=O)[O-])cc1C(=O)c1ccccc1Cl [Nizofenone] ... 18800
O=C1c2ccccc2-c2ccccc21 [9-Fluorenone] ... 43800
CCCN(CCc1cccs1)[C@H]1CCc2c(O)cccc2C1 [Rotigotine] ... 2550
C[C@@H](NCCCc1cccc(C(F)(F)F)c1)c1cccc2ccccc12 [Cinacalcet hydrochloride] ... 10800
CCOC(=O)c1c(N)sc2c1CCN(Cc1ccccc1)C2 [Tinoridine] ... 710
c1ccc(CCCc2ccncc2)cc1 [4-(3-Phenylpropyl)pyridine] ... 700
O=C(NOCC1CC1)c1ccc(F)c(F)c1Nc1ccc(I)cc1Cl [PD-184352] ... 390
CCOC(=O)COc1ccc2c(c1)C[C@@H](NC[C@H](O)c1cccc(Cl)c1)CC2 [SR58611] ... 35200

Query block: What value of IC50 on human CYP2C19 (Homo sapiens, UniProt P33261) does C/C(=C(/OCCOc1ccc(Cl)cc1)c1ccc(Cl)cc1Cl)n1ccnc1 [Omoconazole] have?
Result block: 920
